# test_name: aqueous solubility in buffer
# Format: physicochemical
# test_parameters: buffer of pH 6.5 (close to the pH of the intestine)
assay_endpoint: solubility

For the compound shown here, CCC[C@@]1(CCc2ccccc2)CC(O)=C([C@H](CC)c2cccc(NS(=O)(=O)c3ccc(C(F)(F)F)cn3)c2)C(=O)O1 [compound of formula I] , give the reported solubility. ~1 µg/mL
